System: Oryctolagus cuniculus
Test: Toxicity in hyperlipidemic New Zealand Oryctolagus cuniculus (rabbit) assessed as total bilirubin level at 15 mg/kg/day, po for 2 months (reference value: 28.45 +/- 11.55 Umol/l)
Assay type: organism-based
Set-up: route oral
Settings: in vivo
Attribute Measured: Activity
Please provide the amount together with its unit, number first.

# Activity lookup, item CCCCCCCCCCCCCCCCc1c2c(OC)c(OC)ccc2cc2[n+]1CCc1cc3c(cc1-2)OCO3.[Cl-] [8-HEXADECYL-BERBERINE CHLORIDE]
12.8 µmol/L

====

System: Oryctolagus cuniculus
Assay: Toxicity in hyperlipidemic New Zealand Oryctolagus cuniculus (rabbit) assessed as blood urea nitrogen level at 15 mg/kg/day, po for 2 months (reference value: 7.25 +/- 1.46 mmol/l)
Type: organism-based
Parameters: route oral
Conditions: in vivo
Attribute Measured: Activity (mmol/L)
State the answer as a number, implicitly in mmol/L.

# Activity lookup, item CCCCCCCCCCCCCCCCc1c2c(OC)c(OC)ccc2cc2[n+]1CCc1cc3c(cc1-2)OCO3.[Cl-] [8-HEXADECYL-BERBERINE CHLORIDE]
4.36
